# Read-out: Thyroid Hormone Responsive (THRSP), THRSP (gene 7069)
# PROCEDURE DETAILS: LTEA_HepaRG_THRSP: Life Technologies and Expression Analysis (LTEA) Assay for Thyroid Hormone Responsive (THRSP) using HepaRG (AID 2283536)
# PROTOCOL CONDITIONS: mRNA level, 48 h; actives raise or lower the signal
Activity calls are given as the source filed them. The calls were made as follows: active = hit-call score of the fitted dose curve at least 0.9, where 1 is the maximum; inactive = score below 0.9.
Can you answer with just one of these options? active, inactive

SUBSTANCE SMILES: COc1ccc(O)c(C(C)(C)C)c1
CLASS NAME: inactive
--
SUBSTANCE SMILES: O=C(O)C(F)(F)C(F)(F)C(F)(F)C(F)(F)C(F)(F)C(F)(F)C(F)(F)C(F)(F)F
CLASS NAME: active
--
SUBSTANCE SMILES: ClC1=C(Cl)[C@]2(Cl)[C@@H]3[C@@H]4C[C@@H]([C@H]5O[C@@H]45)[C@@H]3[C@@]1(Cl)C2(Cl)Cl
CLASS NAME: active
--
SUBSTANCE SMILES: CCCN(CCC)N=O
CLASS NAME: inactive
--
SUBSTANCE SMILES: O=C(O)C(F)(F)C(F)(F)C(F)(F)C(F)(F)C(F)(F)C(F)(F)C(F)(F)C(F)(F)C(F)(F)F
CLASS NAME: active
--
SUBSTANCE SMILES: CCNc1nc(NC(C)C)nc(SC)n1
CLASS NAME: inactive

Now look at this entry.
Per the assay record, what outcome was assigned to ClC1=C(Cl)[C@]2(Cl)[C@@H]3[C@@H](Cl)[C@H]4O[C@H]4[C@@H]3C1(Cl)C2(Cl)Cl ?
inactive
